assay_name: Plasma drug concentration in healthy human subjects after single oral dose
Type: in vivo
assay_setup: both sexes, human, plasma; 150 mg single oral dose, 2 hour post-dose; read-out: Ave plasma Cmpd 2 conc
Structures can show the parent of a compound that is named as a salt.

compound: NCc1cc(Oc2cccc(C(=O)N3C[C@@H](O)[C@H](F)C3)c2)nc(C(F)(F)F)c1 [Compound 1-13a, hydrochloride]
concentration at 2 h (nM): 966

###

assay_name: Plasma drug concentration in healthy human subjects after single oral dose
Type: in vivo
assay_setup: both sexes, human, plasma; 450 mg single oral dose, 2 hour post-dose; read-out: Ave plasma Cmpd 2 conc
Counter-ions that a name gives are not always drawn.

compound: NCc1cc(Oc2cccc(C(=O)N3C[C@@H](O)[C@H](F)C3)c2)nc(C(F)(F)F)c1 [Compound 1-13a, hydrochloride]
reading_unit: µM
concentration at 2 h: 4.38

###

assay_name: Plasma drug concentration in healthy human subjects after single oral dose
Format: in vivo
assay_setup: both sexes, human, plasma; 1000 mg single oral dose, 2 hour post-dose; read-out: Ave plasma Cmpd 2 conc
Counter-ions that a name gives are not always drawn.
property_measured: concentration at 2 h (µM)

compound: NCc1cc(Oc2cccc(C(=O)N3C[C@@H](O)[C@H](F)C3)c2)nc(C(F)(F)F)c1 [Compound 1-13a, hydrochloride]
data_value: 12.9

###

Parameter: IC50. Scope: all listed entries.
target_under_test: LOXL2 (Homo sapiens)
Sequence (Q9Y4K0 26-774): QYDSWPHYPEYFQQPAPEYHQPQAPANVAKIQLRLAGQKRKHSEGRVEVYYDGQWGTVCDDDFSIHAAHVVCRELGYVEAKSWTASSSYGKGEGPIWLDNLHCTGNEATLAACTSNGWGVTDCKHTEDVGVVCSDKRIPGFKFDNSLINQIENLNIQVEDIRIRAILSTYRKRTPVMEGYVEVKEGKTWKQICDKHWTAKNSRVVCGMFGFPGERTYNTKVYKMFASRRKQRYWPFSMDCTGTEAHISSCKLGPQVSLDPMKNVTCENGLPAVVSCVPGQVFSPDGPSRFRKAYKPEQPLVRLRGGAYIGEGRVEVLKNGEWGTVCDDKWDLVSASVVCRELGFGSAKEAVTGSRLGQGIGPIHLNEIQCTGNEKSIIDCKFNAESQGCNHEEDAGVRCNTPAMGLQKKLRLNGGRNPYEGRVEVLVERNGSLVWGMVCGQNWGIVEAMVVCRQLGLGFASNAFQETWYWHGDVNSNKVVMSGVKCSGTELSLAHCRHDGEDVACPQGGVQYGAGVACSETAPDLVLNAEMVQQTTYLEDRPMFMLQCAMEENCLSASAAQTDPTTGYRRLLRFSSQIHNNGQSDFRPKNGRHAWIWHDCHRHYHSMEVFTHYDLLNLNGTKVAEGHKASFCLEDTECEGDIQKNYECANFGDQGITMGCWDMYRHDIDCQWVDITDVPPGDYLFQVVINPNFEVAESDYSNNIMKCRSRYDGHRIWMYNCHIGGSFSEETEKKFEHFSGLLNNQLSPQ
assay_name: Human LOXL2 amine oxidase activity assay (Amplex Red)
Format: biochemical
Set-up: expressed in transfected cells; host or cells: CHO cells stably expressing human LOXL2; 10-20x concentrated conditioned media
assay_setup: concentrated conditioned media from CHO cells expressing human LOXL2; 2 h at 37° C. pre-incubation
Structures can show the parent of a compound that is named as a salt.
property_measured: IC50

compound: CN(C)c1cccc2c(S(=O)(=O)Nc3cccc(Oc4cc(CN)cc(C(F)(F)F)n4)c3)cccc12 [Compound 1-6, hydrochloride]
data_value: 300 to 1000 nM

compound: CC1(C)C(/C=C/C(=C/C=C2\N(CCCS(=O)(=O)O)c3ccc4c(S(=O)(=O)O)cc(S(=O)(=O)O)cc4c3C2(C)C)c2cccc(CCCCC(=O)NCCCCCCNC(=O)c3cccc(Oc4cc(CN)cc(C(F)(F)F)n4)c3)c2)=[N+](CCCS(=O)(=O)O)c2ccc3c(S(=O)(=O)O)cc(S(=O)(=O)O)cc3c21 [Compound 1-22, trifluoroacetate]
data_value: > 1000 nM

compound: NCc1cc(Oc2cccc(C(=O)NCCNC(=O)CCCCCNC(=O)CCCCCNC(=O)CCCC[C@@H]3SC[C@@H]4NC(=O)N[C@@H]43)c2)nc(C(F)(F)F)c1 [Compound 1-20, hydrochloride]
data_value: < 300 nM

###

assay_name: Plasma drug concentration in healthy human subjects after single oral dose
Type: in vivo
assay_setup: both sexes, human, plasma; 1000 mg single oral dose, 24 hour post-dose; read-out: Ave plasma Cmpd 2 conc
Structures can show the parent of a compound that is named as a salt.

compound: NCc1cc(Oc2cccc(C(=O)N3C[C@@H](O)[C@H](F)C3)c2)nc(C(F)(F)F)c1 [Compound 1-13a, hydrochloride]
concentration at 24 h, nM: 8

Just for reference, patent US20190192697A1 is where these values come from.
